Entry source: patent US11365185B2

Assay: Rodent Pharmacokinetics - Rat PK
Format: in vivo, male Sprague-Dawley rats
Settings: male, Sprague-Dawley, plasma, intravenous, 1 mg/kg, read-out: Vdss
quantity-kind: Vd (L/kg)

{"molecule": "CC(C)Oc1cncc(Nc2c(-c3ccc(-c4ccc(C5(C(=O)O)CC5)cc4)cn3)cnn2C)n1.Cl [Example 20]", "unit-annotation": "L/kg", "Vd": 0.721}
{"molecule": "CC(C)c1cncc(Nc2c(-c3ccc(-c4ccc(C5(C(=O)O)CC5)cc4)cn3)cnn2C)n1 [Example 27]", "unit-annotation": "L/kg", "Vd": 0.799}

* * *

Biological target: UniProt:Q9UBY5
Sequence (Q9UBY5 whole entry): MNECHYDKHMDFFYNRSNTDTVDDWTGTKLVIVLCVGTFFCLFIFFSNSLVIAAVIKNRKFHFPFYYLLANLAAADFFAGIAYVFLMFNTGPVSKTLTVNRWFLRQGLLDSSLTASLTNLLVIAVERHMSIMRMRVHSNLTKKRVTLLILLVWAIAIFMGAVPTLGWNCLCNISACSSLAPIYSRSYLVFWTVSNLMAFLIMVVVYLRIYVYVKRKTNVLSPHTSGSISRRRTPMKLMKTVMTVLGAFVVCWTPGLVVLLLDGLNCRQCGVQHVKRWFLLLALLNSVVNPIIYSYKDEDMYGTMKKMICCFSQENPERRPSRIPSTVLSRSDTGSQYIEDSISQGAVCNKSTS
Assay: LPAR3 Calcium Flux Assay
Settings: U2OS cells overexpressing human LPAR3, LPA-stimulated calcium, FLIPR
pIC50: −log10 of the molar value. Structures can show the parent of a compound that is named as a salt.
quantity-kind: pIC50

{"compound": "COC(C)(C)c1cncc(Nc2c(-c3ccc(-c4ccc(C5(C(=O)O)CC5)cc4)cn3)cnn2C)n1 [Example 6, Hydrochloride]", "pIC50": 5.28}
{"compound": "Cn1ncc(-c2ccc(-c3ccc(C4(C(=O)O)CC4)cc3)cn2)c1Nc1cncc(OC2CC2)n1 [Example 10]", "pIC50": 5.35}
{"compound": "CC(C)c1cncc(Nc2c(-c3ccc(-c4ccc(C5(C(=O)O)CC5)cn4)cn3)cnn2C)n1 [Example 24, Dihydrochloride]", "pIC50": 5.56}

1: CC(C)c1cncc(Nc2c(-c3ncc(-c4ccc(C5(C(=O)O)CC5)cc4)cn3)cnn2C)n1 [Example 18]
2: Cn1ncc(-c2ccc(-c3ccc(C4(C(=O)O)CC4)cc3)cn2)c1Nc1cncc(OC(C)(C)C)n1 [Example 1]
3: Cn1ncc(-c2ccc(-c3ccc(C4(C(=O)O)CC4)cc3)cn2)c1Nc1cncc(OC2CCC2)n1 [Example 2]
Rank items: key pIC50, increasing. # output: labels, in the requested order
1, 2, 3
